Test system: MCF-7 cells
Test: MCF-7 cell growth inhibition (cell counting)
Format: cell-based
Conditions: Homo sapiens, MCF7, 96 h; MCF-7 cells treated for four days; 50% growth inhibition vs vehicle; average of three experiments; read-out: IC50 (growth inh.)
pIC50: −log10 of the molar value.
observation.type: pIC50

>  <compound>
COC1C=CC=C(C)C(=O)NC2=CC(=O)C(NCCCCCCCCCNC3=C4CC(C)CC(OC)C(O)C(C)C=C(C)C(OC(N)=O)C(OC)C=CC=C(C)C(=O)NC(=CC3=O)C4=O)=C(CC(C)CC(OC)C(O)C(C)C=C(C)C1OC(N)=O)C2=O (centres unmarked)

>  <measured.result>
6.15

$$$$
>  <compound>
COC1C=CC=C(C)C(=O)NC2=CC(=O)C(NCCCCCCCCCCCCNC3=C4CC(C)CC(OC)C(O)C(C)C=C(C)C(OC(N)=O)C(OC)C=CC=C(C)C(=O)NC(=CC3=O)C4=O)=C(CC(C)CC(OC)C(O)C(C)C=C(C)C1OC(N)=O)C2=O (centres unmarked)

>  <measured.result>
6.15

$$$$

A: COC1C=CC=C(C)C(=O)NC2=CC(=O)C(NCCCCNC3=C4CC(C)CC(OC)C(O)C(C)C=C(C)C(OC(N)=O)C(OC)C=CC=C(C)C(=O)NC(=CC3=O)C4=O)=C(CC(C)CC(OC)C(O)C(C)C=C(C)C1OC(N)=O)C2=O (centres unmarked)
B: COC1C=CC=C(C)C(=O)NC2=CC(=O)C(NCCCCCCCNC3=C4CC(C)CC(OC)C(O)C(C)C=C(C)C(OC(N)=O)C(OC)C=CC=C(C)C(=O)NC(=CC3=O)C4=O)=C(CC(C)CC(OC)C(O)C(C)C=C(C)C1OC(N)=O)C2=O (centres unmarked)
query: Would you let me know which has the greater pIC50 value, A or B ? Field: selected label. Fill in the label of the entry you choose.
result: A
